- Tested on: Serratia marcescens
- testSummary: MIC against Gram-negative bacteria: Serratia marcescens
- Assay type: cell-based
- testContext: S. marcescens; 10 h cultivation at 37° C.; 5×10^5 CFU/mL
metricName: MIC (μg/mL) S. marcescens (µg/mL)

substance | metricName | reading
PRT220 (DINECETTNECREDEMCWNYHGGFRCYPRNPCQDPYILTPENRCV; listed as Homo sapiens) | MIC (μg/mL) S. marcescens | 50
PRT768 (AIDYCSFGNHSCQHECVSTPGGPRCHCREGHDLQPDGRSCQ; listed as Homo sapiens) | MIC (μg/mL) S. marcescens | 12.5
PRT866 (CQCHGHAARCAARARPPRCHCRHHTTGPGCESCRPSHRDWPWRPATPRHPHPCLP; listed as Homo sapiens) | MIC (μg/mL) S. marcescens | 12.5
PRT844 (CRCNRHSECAGVGARDHCLLCRNHTKGSHCEQCLPLFVGSAVGGGTCRP; listed as Homo sapiens) | MIC (μg/mL) S. marcescens | 25
PRT253 (DYCSQNTCLNGGKCSWTHGAGYVCKCPPQFSGKHCE; listed as Homo sapiens) | MIC (μg/mL) S. marcescens | 12.5
PRT761 (RKDVCQAIDHGCEHICVNSDDSYTCECLEGFRLAEDGKRCR; listed as Homo sapiens) | MIC (μg/mL) S. marcescens | 25
PRT874 (CNCNQIGSVHDRCNETGFCECREGAAGPKCDDCLPTHYWRQGCYP; listed as Homo sapiens) | MIC (μg/mL) S. marcescens | 12.5
